Assay: NCI Yeast Anticancer Drug Screen. Data for the rad50 strain (AID 155)
Details: S. cerevisiae rad50 strain growth inhibition; at 50.0 µM
About 79,000 compounds went through this panel and 15% of them were active in at least one assay; those are over-represented in the sample as a whole. Active and inactive are the calls of the source. Rule as the data show it: active = growth inhibition above about 70%; inactive = the rest.
Select the correct class. Options are YES = active, NO = inactive and nothing else.

Consider the following illustrative entries.
- COMPOUND: "CN(C)c1nc(N(C)C)oc(=[N+](C)C)n1"
  CLASS NAME: "NO"
- COMPOUND: "Cc1ccc(/C=C2\\CN(C)CC3=C2NC(=S)NC3c2ccc(C)cc2)cc1 (centres undefined)"
  CLASS NAME: "NO"

Outcome? CCOC(=O)c1[nH]n(-c2ccccc2)c(=O)c1/C=N/C(=S)Nc1ccccc1OC
NO

Outcome? CCC[CH2][Sn]([CH2]CCC)([O]C(=O)c1c(F)cccc1F)[O]C(=O)c1c(F)cccc1F
YES

Outcome? O=C1OC2(Cc3ccccc31)c1ccccc1-c1ccccc12
NO

Outcome? O=C1NN(C2=NNC3(C(=O)N2)c2ccccc2-c2ccccc23)C(c2ccccc2)=N/C1=C/c1ccc(O)cc1
NO
